Documented pKi across a set of compounds
targetOrSystem: JB urease enzyme (Canavalia ensiformis)
protocolNotes: Kinetic analysis of JB urease inhibition
Format: biochemical, jack bean
# pKi: negative log10 of molar concentration; output just the value

compound: CC1COc2c(N3CCN(C)CC3)c(F)cc3c(=O)c(C(=O)O)cn1c23 (centres unmarked) [ofloxacin]
measuredResult: 5.26

// switching to the query compound
pKi reading for C[C@H]1COc2c(N3CCN(C)CC3)c(F)cc3c(=O)c(C(=O)O)cn1c23 [levofloxacin] : 5.31

====

Documented IC50 across a set of compounds
targetOrSystem: jack bean (JB) urease (Canavalia ensiformis)
Sequence (P07374 whole entry, looked up): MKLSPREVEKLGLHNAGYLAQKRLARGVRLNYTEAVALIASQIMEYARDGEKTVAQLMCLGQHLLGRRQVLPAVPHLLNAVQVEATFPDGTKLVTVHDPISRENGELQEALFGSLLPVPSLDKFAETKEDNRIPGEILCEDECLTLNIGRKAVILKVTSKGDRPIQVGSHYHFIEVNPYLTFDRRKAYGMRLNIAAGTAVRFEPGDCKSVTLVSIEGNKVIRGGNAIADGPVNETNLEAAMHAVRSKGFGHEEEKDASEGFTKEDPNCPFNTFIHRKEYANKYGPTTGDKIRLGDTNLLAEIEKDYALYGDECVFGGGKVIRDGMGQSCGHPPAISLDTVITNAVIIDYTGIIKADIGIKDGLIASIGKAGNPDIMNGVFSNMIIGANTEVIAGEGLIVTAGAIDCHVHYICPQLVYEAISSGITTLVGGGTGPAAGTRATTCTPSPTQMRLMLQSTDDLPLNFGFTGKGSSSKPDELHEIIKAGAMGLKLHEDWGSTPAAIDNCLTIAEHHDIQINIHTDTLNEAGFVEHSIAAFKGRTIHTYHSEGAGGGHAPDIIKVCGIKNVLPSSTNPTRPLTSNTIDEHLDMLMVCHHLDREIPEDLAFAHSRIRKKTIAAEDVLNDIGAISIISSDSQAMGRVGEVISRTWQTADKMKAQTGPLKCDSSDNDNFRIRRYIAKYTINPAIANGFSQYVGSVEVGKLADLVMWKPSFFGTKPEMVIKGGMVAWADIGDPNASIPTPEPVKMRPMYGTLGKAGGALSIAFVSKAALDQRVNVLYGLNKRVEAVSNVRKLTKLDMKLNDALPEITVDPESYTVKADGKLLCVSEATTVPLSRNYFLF
Unit µM implied. Number only.

compound: C[C@H]1COc2c(N3CCN(C)CC3)c(F)cc3c(=O)c(C(=O)O)cn1c23
IC50 (µM): 7.24
--
compound: N[C@@H](C(=O)N[C@@H]1C(=O)N2C(C(=O)O)=C(Cl)CS[C@H]12)c1ccccc1
IC50 (µM): 62.9
--
compound: CC1=C(C(=O)O)N2C(=O)[C@@H](NC(=O)[C@H](N)C3=CCC=CC3)[C@H]2SC1
IC50 (µM): 227
--
compound: C[C@@H]1CN(c2c(F)c(N)c3c(=O)c(C(=O)O)cn(C4CC4)c3c2F)C[C@H](C)N1
IC50 (µM): 214
--
compound: CC(C)(O/N=C(\C(=O)N[C@@H]1C(=O)N2C(C(=O)[O-])=C(C[n+]3ccccc3)CS[C@H]12)c1csc(N)n1)C(=O)O
IC50 (µM): 124

IC50 reading for `COc1c(N2C[C@@H]3CCCN[C@@H]3C2)c(F)cc2c(=O)c(C(=O)O)cn(C3CC3)c12` : 135

IC50 reading for CO/N=C1\CN(c2nc3c(cc2F)c(=O)c(C(=O)O)cn3C2CC2)CC1CN (stereo not shown) : 16.5
